assay: TLC precursor-binding assay with C55-P; settings: absence of C55-P spot = potential indicator of binding; KMnO4 staining in Figure S5
Numbered stars: 1 amine (or outer) side, 2 acyl side, 3 side chain; on linkers, the order of the positions; unused ones are H or OH. Bridge positions count the residues as written; N and C are the ends. Square brackets hold non-standard residues; d marks the D form. Peptide text beside a SMILES is read from it. * marks the point of attachment. β2hAla(R) = C[C@H](CN[*:1])C(=O)[*:2]; Decanoyl = CCCCCCCCCC(=O)*; Sar = CNCC(=O)O
endpoint-label: C55-P spot on TLC after incubation with peptide (in words)

- molecule: "CCCCCCCCCC(=O)NC[C@@H](C)C(=O)NCC(=O)N[C@H](CCC(=O)O)C(=O)N[C@@H](Cc1ccc(O)cc1)C(=O)N[C@@H]1C(=O)N[C@H]([C@H](C)CC)C(=O)N[C@@H](CC(=O)O)C(=O)N[C@@H](CC(=O)O)C(=O)N2CCC[C@H]2C(=O)NCC(=O)N[C@@H](CCC(=O)O)C(=O)N[C@@H](CCC(=O)O)C(=O)N(C)CC(=O)O[C@@H]1C [Peptide C2c] (Decanoyl-[β2hAla(R)]G[dE]YT[dI]DDPGEE[Sar]; ester 5-C)"
  result: "no longer visible"
- molecule: "CCCCCCCCCC(=O)NC[C@@H](C)C(=O)NCC(=O)N[C@H](CCC(=O)O)C(=O)N[C@@H](Cc1ccc(O)cc1)C(=O)N[C@@H]1C(=O)N[C@H]([C@H](C)CC)C(=O)N[C@@H](CC(=O)O)C(=O)N[C@@H](CC(=O)O)C(=O)N2CCC[C@H]2C(=O)NCC(=O)N[C@H](CCC(=O)O)C(=O)N[C@@H](CCC(=O)O)C(=O)N(C)CC(=O)O[C@@H]1C [Peptide C1b] (Decanoyl-[β2hAla(R)]G[dE]YT[dI]DDPG[dE]E[Sar]; ester 5-C)"
  result: "no longer visible"

---

experiment: head-to-tail type lactamisation of side-chain-protected branched depsipeptide (Gly10 N-terminus of ester branch + C-terminal Pro9), HATU/DIPEA (pH ~10), microwave; details: the molecule shown is the open-chain precursor; 28-membered ring; DCM; 6.0 mM; 70.0 °C; 1.0 h
I'd be grateful if you could share measured ring closure, overall yield for these entries.
Give bare numbers, in %.

Record excerpt, results attached:
- structure-smiles-string: "CCCCCCCCCC(=O)NC[C@@H](C)C(=O)NCC(=O)N[C@H](CCC(=O)OC(C)(C)C)C(=O)N[C@@H](Cc1ccc(OC(C)(C)C)cc1)C(=O)N[C@H](C(=O)N[C@@H](C(=O)N[C@@H](CC(=O)OC(C)(C)C)C(=O)N[C@@H](CC(=O)OC(C)(C)C)C(=O)N1CCC[C@H]1C(=O)O)[C@H](C)CC)[C@@H](C)OC(=O)CN(C)C(=O)[C@H](CCC(=O)OC(C)(C)C)NC(=O)[C@H](CCC(=O)OC(C)(C)C)NC(=O)CN"
  unit-of-measure: "%"
  ring closure, overall yield: 1
- structure-smiles-string: "CCCCCCCCCC(=O)NC[C@@H](C)C(=O)NCC(=O)N[C@H](CCC(=O)OC(C)(C)C)C(=O)N[C@@H](Cc1ccc(OC(C)(C)C)cc1)C(=O)N[C@H](C(=O)N[C@@H](C(=O)N[C@@H](CC(=O)OC(C)(C)C)C(=O)N[C@@H](CC(=O)OC(C)(C)C)C(=O)N1CCC[C@H]1C(=O)O)[C@H](C)CC)[C@@H](C)OC(=O)CN(C)C(=O)[C@H](CC(=O)OC(C)(C)C)NC(=O)[C@@H](CC(=O)OC(C)(C)C)NC(=O)CN"
  unit-of-measure: "%"
  ring closure, overall yield: 0.3

Continue with the next compound.
Kindly indicate its recorded ring closure, overall yield. Item: "CCCCCCCCCC(=O)NC[C@@H](C)C(=O)NCC(=O)N[C@H](CCC(=O)OC(C)(C)C)C(=O)N[C@@H](Cc1ccc(OC(C)(C)C)cc1)C(=O)N[C@H](C(=O)N[C@@H](C(=O)N[C@@H](CC(=O)OC(C)(C)C)C(=O)N[C@@H](CC(=O)OC(C)(C)C)C(=O)N1CCC[C@H]1C(=O)O)[C@H](C)CC)[C@@H](C)OC(=O)CN(C)C(=O)[C@H](CCC(=O)OC(C)(C)C)NC(=O)[C@@H](CC(=O)OC(C)(C)C)NC(=O)CN"
0.3

src = paper PMC12650660
